# targetEntity: phosphodiesterase fraction III
# experimentalDetails: Inhibition of phosphodiesterase fraction III activity
# appliedConditions: cyclic AMP substrate 0.01-1.0 micromolar, pH 7.4, fraction III enzyme from canine heart
recordedEndpoint: IC50 (µM)

itemSmiles: CCCCNc1nc(C)c2cc(OC)c(OC)cc2c1[N+](=O)[O-]
unit: µM
numericResult: 250

itemSmiles: COc1cc2c(C)nc(N(C)c3ccccc3)c([N+](=O)[O-])c2cc1OC
unit: µM
numericResult: 220

itemSmiles: COc1cc2c(C)nc(N3CCN(c4ccccc4)CC3)c([N+](=O)[O-])c2cc1OC
unit: µM
numericResult: 150

itemSmiles: CCCCNC(=O)Nc1c(N(C)C)nc(C)c2cc(OC)c(OC)cc12
unit: µM
numericResult: 300

---

# Tested on: renal vasculature
# experimentalDetails: Renal vasodilating activity in anesthetized dogs
# Type: in vivo, adult mongrel dogs
# appliedConditions: Canis lupus familiaris; anesthetized dog, dose 6.2 mpk iv, relative to control; read-out: RBF, percent change in renal blood flow
recordedEndpoint: change in vivo at 6.2 mg/kg (%)
Express your answer in %, writing the number without its unit.

These solved cases illustrate the format of a correct answer.
compound: COc1cc2c(C)nc(Nc3ccccc3)c([N+](=O)[O-])c2cc1OC [Cmpd 12]
change in vivo at 6.2 mg/kg (%): 42
//
compound: COc1cc2c(C)nc(NC3CCN(Cc4ccccc4)CC3)c([N+](=O)[O-])c2cc1OC [Cmpd 11]
change in vivo at 6.2 mg/kg (%): 28
//
compound: CCN(CC)c1nc(C)c2cc(OC)c(OC)cc2c1[N+](=O)[O-] [Cmpd 15]
change in vivo at 6.2 mg/kg (%): 8
//
compound: CCCCSc1nc(C)c2cc(OC)c(OC)cc2c1[N+](=O)[O-] [Cmpd 23]
change in vivo at 6.2 mg/kg (%): 16
//
compound: COc1cc2c(C)nc(N3CCN(c4ccccc4)CC3)c([N+](=O)[O-])c2cc1OC [Cmpd 19]
change in vivo at 6.2 mg/kg (%): 30

Next:
Form entry - test system: renal vasculature; read-out: change in vivo at 6.2 mg/kg; compound: COc1cc2c(C)nc(NCc3ccccc3)c([N+](=O)[O-])c2cc1OC [Cmpd 4]
9

---

# targetEntity: phosphodiesterase fraction III
# experimentalDetails: Inhibition of phosphodiesterase fraction III activity
# appliedConditions: cyclic AMP substrate 0.01-1.0 micromolar, pH 7.4, fraction III enzyme from canine heart
recordedEndpoint: IC50 (µM)

itemSmiles: COc1cc2c(C)nc(Nc3ccccc3)c([N+](=O)[O-])c2cc1OC
IC50, µM: 250
--
itemSmiles: COc1cc2c(C)nc(N(C)C)c([N+](=O)[O-])c2cc1OC
IC50, µM: 10
--
itemSmiles: COc1cc2c(C)nc(N(C)C)c(N)c2cc1OC
IC50, µM: 14
--
itemSmiles: CCCCSc1nc(C)c2cc(OC)c(OC)cc2c1[N+](=O)[O-]
IC50, µM: 280
--
itemSmiles: COc1cc2c(C)nc(NC3CCN(Cc4ccccc4)CC3)c([N+](=O)[O-])c2cc1OC
IC50, µM: 120

---

# targetEntity: phosphodiesterase fraction III
# experimentalDetails: Inhibition of phosphodiesterase fraction III activity
# appliedConditions: cyclic AMP substrate 0.01-1.0 micromolar, pH 7.4, fraction III enzyme from canine heart
recordedEndpoint: IC50 (µM)

molecule: C=CCNC(=O)Nc1c(N(C)C)nc(C)c2cc(OC)c(OC)cc12 [Cmpd 30]
numericResult: 280
--
molecule: CCN(CCN(C)C)c1nc(C)c2cc(OC)c(OC)cc2c1[N+](=O)[O-] [Cmpd 16]
numericResult: 300

[a] CNc1nc(C)c2cc(OC)c(OC)cc2c1[N+](=O)[O-] [Cmpd 2]
[b] CCN(C)c1nc(C)c2cc(OC)c(OC)cc2c1[N+](=O)[O-] [Cmpd 14]
[c] COc1cc2c(C)nc(Nc3ccccc3)c(N)c2cc1OC [Cmpd 25]
With regard to IC50, arrange the entries in ascending order, please. The reply should contain the labels ordered as requested.
b, c, a
(b: 25 µM, c: 68 µM, a: 265 µM)
